Entries and their EC50
tested.target: hGIPR (Homo sapiens)
Sequence (P48546 22-466): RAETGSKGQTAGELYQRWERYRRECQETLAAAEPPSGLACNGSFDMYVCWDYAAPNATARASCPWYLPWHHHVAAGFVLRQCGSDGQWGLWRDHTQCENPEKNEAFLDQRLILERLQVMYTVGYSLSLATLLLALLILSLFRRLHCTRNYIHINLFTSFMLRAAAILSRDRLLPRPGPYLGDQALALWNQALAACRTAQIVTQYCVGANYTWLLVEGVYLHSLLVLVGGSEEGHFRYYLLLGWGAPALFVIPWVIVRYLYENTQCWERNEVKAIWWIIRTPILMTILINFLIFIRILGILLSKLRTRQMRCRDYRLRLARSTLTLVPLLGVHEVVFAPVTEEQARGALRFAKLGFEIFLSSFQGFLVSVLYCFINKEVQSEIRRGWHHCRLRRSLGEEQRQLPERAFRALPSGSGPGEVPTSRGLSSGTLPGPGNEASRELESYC
test.description: Functional cAMP activation in the presence of 0.1% casein (no HSA);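 further: intracellular cAMP rise after 30 min at 37 °C read by HTRF against a standard curve, scaled between buffer alone (0%) and top control ligand concentration (100%), four-parameter fit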
Type: cell-based
recorded.conditions: read-out: Relative cAMP EC50, hGIPR
Starred links: 1 amine or outer side, 2 acyl side, 3 side chain; linkers in the order of their positions; H or OH if unused. Non-standard residues stand in square brackets, D forms with d. Groups on a side chain read outwards from the residue. *: point of attachment. C18 diacid = O=C(O)CCCCCCCCCCCCCCCCC(=O)*; αMePhe(2-F) = C[C@](N)(Cc1ccccc1F)C(=O)O; γGlu = O=C(O)[C@H](CCC(=O)[*:2])N[*:1]; αMe4Pal = C[C@](N)(Cc1ccncc1)C(=O)O; αMeY = C[C@](N)(Cc1ccc(O)cc1)C(=O)O; 4Pal = N[C@@H](Cc1ccncc1)C(=O)O; αMeL = CC(C)C[C@](C)(N)C(=O)O; αMeS = C[C@](N)(CO)C(=O)O; Orn = NCCC[C@H](N)C(=O)O; AEEA = NCCOCCOCC(=O)O; Aib = CC(C)(N)C(=O)O

Solved entries (count: 3):
substance	tested.target	experimental.value
H-Y[Aib]QGT[αMePhe(2-F)]TSD[4Pal]SILLD[Orn]K([γGlu-γGlu-C18 diacid])AQ[Aib]AFIEYLEEGGPSSGAPPPSGTE-NH2 [Example 513]	hGIPR (Homo sapiens)	0.0956 nM
H-Y[Aib]QGT[αMePhe(2-F)]TSD[4Pal][αMeS]I[αMeL]LD[Orn]K([AEEA-γGlu-C18 diacid])AQ[αMe4Pal]EFI[dE][αMeY]LIEGGPSSGAPPPSGSE-NH2 [Example 712]	hGIPR (Homo sapiens)	0.00689 nM
H-Y[Aib]QGT[αMePhe(2-F)]TSDY[αMeS]I[αMeL]LD[Orn]K([AEEA-γGlu-C18 diacid])AQ[Aib][Orn]FI[dE][αMeY]LEEGGPSSGEPPPEEG-NH2 [Example 403]	hGIPR (Homo sapiens)	0.0827 nM

Ask: EC50 of H-Y[Aib]QGT[αMePhe(2-F)]TSD[4Pal][αMeS]I[αMeL]LD[Orn]K([γGlu-γGlu-C18 diacid])AQ[Aib][Orn]FI[dE][αMeY]LSEGGPSSGEPPPSGTEE-NH2 [Example 561] on hGIPR (Homo sapiens)?
Reply: 0.212 nM
